- measurement protocol: in vitro
- settings: mouse, microsomes
measure: microsomal CLint (µL/min/mg)

smiles_representation=FC(F)(F)c1ccc(N(c2cccnc2)C2CCN(c3ccc(C(F)(F)F)cn3)CC2)cc1 measure="microsomal CLint" value_reported=25

###

- measurement protocol: DNDI: Metabolism
- Type: ADME, Canis lupus familiaris, Microsome
- settings: dog, microsomes
measure: microsomal CLint (µL/min/mg)

smiles_representation=FC(F)(F)c1ccc(N(c2cccnc2)C2CCN(c3ccc(C(F)(F)F)cn3)CC2)cc1 measure="microsomal CLint" value_reported=24

###

- measurement protocol: DNDI: Solubility in phosphate buffer at pH 6.5 determined by nephelometry
solubility kinetic by entry:
measure: solubility kinetic (µg/mL)

compound="CC(O)C(C)N1CCC(N(c2ccc(C(F)(F)F)cc2)c2cccnc2)CC1 (stereo not given)" bound_type== value_reported=25
compound=FC(F)(F)c1ccc(N(c2cccnc2)C2CCN(c3ccc(Cl)cc3)CC2)cc1 bound_type=< value_reported=1.6
compound=Cn1nc(C2CC2)cc1N1CCC(N(c2ccc(C(F)(F)F)cc2)c2cccnc2)CC1 bound_type=< value_reported=1.6
compound="FC(F)(F)c1ccc(N(c2cccnc2)C2CCN(C(c3ccccc3)C(F)(F)F)CC2)cc1 (stereo not given)" bound_type== value_reported=1.6
compound=Fc1cnc(N2CCC(N(c3ccc(C(F)(F)F)cc3)c3cccnc3)CC2)nc1 bound_type=< value_reported=1.6
compound=COc1ccc(CN2CCC(N(c3ccc(C(F)(F)F)cc3)c3cccnc3)CC2)cc1 bound_type== value_reported=6.3
compound=FC(F)(F)c1ccc(N(c2cccnc2)C2CCN(c3ccccc3)CC2)cc1 bound_type=< value_reported=1.6
compound=O=C(C1CC1)N1CCC(N(c2ccc(Cl)cc2)c2cccnc2)CC1 bound_type== value_reported=12.5
compound=N#Cc1ccc(N2CCC(N(c3ccc(C(F)(F)F)cc3)c3cccnc3)CC2)cc1 bound_type=< value_reported=1.6
compound=N#Cc1cc(C(F)(F)F)ccc1N1CCC(N(c2ccc(C(F)(F)F)cc2)c2cccnc2)CC1 bound_type=< value_reported=1.6
compound=CC(C)(O)CN1CCC(N(c2ccc(C#N)cc2)c2cccnc2)CC1 bound_type=> value_reported=100
compound=N#Cc1cc(C(F)(F)F)ccc1N1CCC(N(c2ccc(Cl)cc2)c2cccnc2)CC1 bound_type=< value_reported=1.6
compound=N#Cc1ccccc1N1CCC(N(c2ccc(C(F)(F)F)cc2)c2cccnc2)CC1 bound_type=< value_reported=1.6
compound=O=C(c1ccccc1)N1CCC(N(c2ccc(Cl)cc2)c2cccnc2)CC1 bound_type== value_reported=6.3
compound="CCC(C(C)=O)N1CCC(N(c2ccc(C(F)(F)F)cc2)c2cccnc2)CC1 (stereo not given)" bound_type== value_reported=12.5
compound=CN(C)S(=O)(=O)c1cccc(N2CCC(N(c3ccc(C#N)cc3)c3cccnc3)CC2)c1 bound_type=< value_reported=1.6
compound=CS(=O)(=O)c1ccc(N2CCC(N(c3ccc(C#N)cc3)c3cccnc3)CC2)cc1 bound_type== value_reported=1.6
compound=FC(F)(F)c1ccc(N(c2cccnc2)C2CCN(c3ccc(C(F)(F)F)cn3)CC2)cc1 bound_type=< value_reported=1.6
compound=N#Cc1ccc(N(c2cccnc2)C2CCN(c3ccc(C(F)(F)F)cc3)CC2)cc1 bound_type=< value_reported=1.6
compound=FC(F)(F)c1ccc(N(c2cccnc2)C2CCN(c3ncccn3)CC2)cc1 bound_type== value_reported=1.6
